Method summary: self-splicing fitness, log relative to wild type (ln ratio); higher = more splicing; Tetrahymena group I intron in knt gene, E. coli kanamycin selection, DiMSum; sequences stand for … in CUCUCU…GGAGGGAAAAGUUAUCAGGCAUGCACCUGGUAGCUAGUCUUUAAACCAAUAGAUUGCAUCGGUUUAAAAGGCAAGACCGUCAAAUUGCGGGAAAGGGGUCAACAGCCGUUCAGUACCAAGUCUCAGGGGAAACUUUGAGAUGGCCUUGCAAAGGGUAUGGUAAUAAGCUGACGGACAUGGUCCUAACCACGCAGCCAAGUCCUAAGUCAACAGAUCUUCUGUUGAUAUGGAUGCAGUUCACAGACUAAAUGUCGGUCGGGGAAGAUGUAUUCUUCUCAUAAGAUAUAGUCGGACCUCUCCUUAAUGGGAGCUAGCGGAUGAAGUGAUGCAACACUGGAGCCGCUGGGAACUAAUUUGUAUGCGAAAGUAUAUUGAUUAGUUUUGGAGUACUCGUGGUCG;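 further: selection with 25 µg/mL kanamycin versus none on LB agar overnight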
Experimental conditions: 37 °C
// no (0) strictly below -2 in self-splicing fitness (ln); yes (1) otherwise

Query block: Test whether the sequence AACUAGCAAUAUUACGAAAA records self-splicing fitness (ln) of -2 or higher.
Result block: yes (1)

Query block: Test whether the sequence CCAGAGCAAUAUUACGUCGU records self-splicing fitness (ln) of -2 or higher.
Result block: no (0)

Query block: Test whether the sequence CACGAGCAAUAUUACGAGGA records self-splicing fitness (ln) of -2 or higher.
Result block: no (0)

Query block: Test whether the sequence CUCCAGCAAUAUUACGUUAA records self-splicing fitness (ln) of -2 or higher.
Result block: no (0)

Query block: Test whether the sequence UAUGAGCAAUAUUACGUGUG records self-splicing fitness (ln) of -2 or higher.
Result block: yes (1)

Query block: Test whether the sequence CGUUAGCAAUAUUACGGGGC records self-splicing fitness (ln) of -2 or higher.
Result block: no (0)

Query block: Test whether the sequence UCCUAGCAAUAUUACGGGAG records self-splicing fitness (ln) of -2 or higher.
Result block: no (0)
